Listed molecules paired with reported MIC
Test system: Klebsiella 63
method notes: MIC, liquid medium test tube series dilution test
Type: cell-based
measurement context: Klebsiella 63, 24 hours, 37°C

molecule	assay system	reported result
CC(C)C(=O)N(C)C(=O)N[C@@H](C(=O)N[C@@H]1C(=O)N2[C@@H]1SC(C)(C)[C@@H]2C(=O)O)c1ccccc1	Klebsiella 63	20-100 units/ml
CN(C(=O)CCCCl)C(=O)NC(C(=O)N[C@@H]1C(=O)N2[C@@H]1SC(C)(C)[C@@H]2C(=O)O)c1cccs1 (stereo partly shown)	Klebsiella 63	20-100 units/ml
CC1(C)S[C@@H]2[C@H](NC(=O)[C@H](N)c3ccccc3)C(=O)N2[C@H]1C(=O)O [Ampicillin, D(-)-α-Aminobenzylpenicillin, reference compound]	Klebsiella 63	100-200 units/ml

Consider the molecule shown here: Cc1noc(C)c1C(=O)N(C)C(=O)N[C@@H](C(=O)N[C@@H]1C(=O)N2[C@@H]1SC(C)(C)[C@@H]2C(=O)O)c1ccccc1 What is its recorded MIC?
20-100 units/ml

###

Tested on: Klebsiella 63
method notes: MIC, liquid medium test tube series dilution test
Format: cell-based
measurement context: Klebsiella 63, 24 hours, 37°C
metric: MIC (units/ml)

Please review the following examples before continuing.
compound	metric	reported result
CC(=O)N(C(=O)N[C@@H](C(=O)N[C@@H]1C(=O)N2[C@@H]1SC(C)(C)[C@@H]2C(=O)O)c1ccccc1)c1ccccc1	MIC	50
CC(=O)N(C)C(=O)N[C@@H](C(=O)N[C@@H]1C(=O)N2[C@@H]1SC(C)(C)[C@@H]2C(=O)O)c1ccccc1 [Example 66A]	MIC	50

1: Cc1ccc(C(NC(=O)N2CCNC2=O)C(=O)N[C@@H]2C(=O)N3[C@@H]2SC(C)(C)[C@@H]3C(=O)O)cc1 (stereo partly shown) [Example 46]
2: C=CCN(C(=O)N[C@@H](C(=O)N[C@@H]1C(=O)N2[C@@H]1SC(C)(C)[C@@H]2C(=O)O)c1ccccc1)C(=O)c1ccccc1
Which value of MIC is greater, the one for 1 or the one for 2 ? Write down the label of the entry you select.
1
(1: 50 units/ml, 2: 25 units/ml)

###

System: Klebsiella 63
method notes: MIC, liquid medium test tube series dilution test
Assay type: cell-based
measurement context: Klebsiella 63, 24 hours, 37°C
metric: MIC (units/ml)

Please review the entries below; each comes with its answer.
                                   compound   assay_system  metric  display_unit  reported_result
0  CC1(C)S[C@@H]2[C@H](NC(=O)C(NC(=O)N3CCNC3=O)c3ccc(Cl)cc3)C(=O)N2[C@H]1C(=O)O (stereo partly drawn) [Example 47]  Klebsiella 63     MIC      units/ml               50
1  C=CCN(C(C)=O)C(=O)N[C@@H](C(=O)N[C@@H]1C(=O)N2[C@@H]1SC(C)(C)[C@@H]2C(=O)O)c1ccccc1 [Example 1]  Klebsiella 63     MIC      units/ml               50
2  Cc1ccc(C(NC(=O)N(C)C(=O)c2ccccc2F)C(=O)N[C@@H]2C(=O)N3[C@@H]2SC(C)(C)[C@@H]3C(=O)O)cc1 (stereo partly drawn)  Klebsiella 63     MIC      units/ml               50
3  CC(=O)N(C)C(=O)NC(C(=O)N[C@@H]1C(=O)N2[C@@H]1SC(C)(C)[C@@H]2C(=O)O)c1ccc(C)cc1 (stereo partly drawn)  Klebsiella 63     MIC      units/ml              200
4  CCOC(=O)N(C)C(=O)N[C@@H](C(=O)N[C@@H]1C(=O)N2[C@@H]1SC(C)(C)[C@@H]2C(=O)O)c1ccccc1  Klebsiella 63     MIC      units/ml               50

I: CC(C)OC(=O)N(C)C(=O)N[C@@H](C(=O)N[C@@H]1C(=O)N2[C@@H]1SC(C)(C)[C@@H]2C(=O)O)c1ccccc1
II: CN(C(=O)N[C@@H](C(=O)N[C@@H]1C(=O)N2[C@@H]1SC(C)(C)[C@@H]2C(=O)O)c1ccccc1)C(=O)c1ccc(Cl)cc1[N+](=O)[O-]
III: CN(C(=O)CCCCl)C(=O)N[C@@H](C(=O)N[C@@H]1C(=O)N2[C@@H]1SC(C)(C)[C@@H]2C(=O)O)c1ccccc1 [Example 24]
Please give the order of these compounds when sorted by MIC, largest value leading. Ranked list of labels, please, in the requested order.
III, I, II

A: CC1(C)S[C@@H]2[C@H](NC(=O)[C@H](NC(=O)N3CCNC3=O)c3ccccc3)C(=O)N2[C@H]1C(=O)O [Example 51]
B: CN(C(=O)N[C@@H](C(=O)N[C@@H]1C(=O)N2[C@@H]1SC(C)(C)[C@@H]2C(=O)O)c1ccccc1)C(=O)c1ccc(Cl)cc1Cl
Pick one, A or B : lowest reported MIC. Answer with the label corresponding to your selection.
B
(B: 25 units/ml, A: 50 units/ml)
